ASSAY_EXPLANATION: in vivo
SETUP_CONDITIONS: male, CD-1, mouse, iv, 2 mg/kg
VALUE_KIND: clearance (mL/min/kg)
A number alone suffices; assume mL/min/kg.

For this molecule ( Cc1n[nH]c(C)c1N1CCN(c2cc(C(=O)O)ccc2F)CC1 [Compound 18a] ), measured clearance is 5.9

----------
ASSAY_EXPLANATION: Metabolic stability and clearance in human liver microsomes
Assay type: in vitro ADME
SETUP_CONDITIONS: both sexes; human liver microsomes
VALUE_KIND: microsomal CLint at 1 μM

For this molecule ( Cc1n[nH]c(C)c1N1CCN(c2cc(C(=O)O)ccc2F)CC1 [Compound 18a] ), measured microsomal CLint at 1 μM is < 0.0231 µL/min/mg
